Assay: Plasma pharmacokinetics in patients
Format: in vivo, human
Details: human, plasma, intravenous, t1/2,z, DL1, C1D1, onalespib 40 mg/m^2 with AT7519 21 mg/m^2, n = 4, geometric mean
Readout kind: half-life (h)
Response body: numeric value in h, unit text excluded.

For reference, reported half-life for `CC(C)c1cc(C(=O)N2Cc3ccc(CN4CCN(C)CC4)cc3C2)c(O)cc1O` stands at 9.6

----------
Assay: Plasma pharmacokinetics in patients
Format: in vivo, human
Settings: human, plasma, iv, 80 mg/m2, Cmax, DL3, C0D1, onalespib 80 mg/m^2 IV alone, n = 5, geometric mean
Readout kind: Cmax (ng/mL)
Respond with the bare value in ng/mL.

Cmax recorded for this compound, CC(C)c1cc(C(=O)N2Cc3ccc(CN4CCN(C)CC4)cc3C2)c(O)cc1O [onalespib] , is 487

----------
Experiment: Plasma pharmacokinetics in patients
Type: in vivo, human
Conditions: human, plasma, intravenous, AUC, DL3, C1D1, onalespib 80 mg/m^2 with AT7519 27 mg/m^2, n = 4, geometric mean
Readout kind: AUC (ng·h/mL)
Supply the numeric figure in ng·h/mL, leaving out any unit text.

Entry `CC(C)c1cc(C(=O)N2Cc3ccc(CN4CCN(C)CC4)cc3C2)c(O)cc1O` — recorded AUC = 1410

----------
Assay: Plasma pharmacokinetics in patients
Type: in vivo, human
Details: human, plasma, iv, t1/2,z, DL1, C1D11, AT7519 21 mg/m^2 IV after onalespib 40 mg/m^2, n = 2, geometric mean
Readout kind: half-life (h)
Record the value in h, omitting the unit from your answer.

The recorded half-life for `O=C(NC1CCNCC1)c1n[nH]cc1NC(=O)c1c(Cl)cccc1Cl` is 10.8

----------
Assay: Plasma pharmacokinetics in patients
Type: in vivo, human
Conditions: human, plasma, iv, t1/2,z, DL2, C1D11, AT7519 21 mg/m^2 IV after onalespib 80 mg/m^2, n = 11, geometric mean
Readout kind: half-life (h)
// note: answer is a bare numeric in h

// `O=C(NC1CCNCC1)c1n[nH]cc1NC(=O)c1c(Cl)cccc1Cl` : half-life value = 10.7

----------
Assay: Plasma pharmacokinetics in patients
Type: in vivo, human
Conditions: human, plasma, iv, 40 mg/m2, Cmax, DL1, C0D1, onalespib 40 mg/m^2 IV alone, n = 5, geometric mean
Readout kind: Cmax (ng/mL)
Express your answer in ng/mL, writing the number without its unit.

For `CC(C)c1cc(C(=O)N2Cc3ccc(CN4CCN(C)CC4)cc3C2)c(O)cc1O` the compound record lists Cmax as 193

----------
Assay: Plasma pharmacokinetics in patients
Type: in vivo, human
Conditions: human, plasma, iv, Cmax, DL2, C1D1, AT7519 21 mg/m^2 IV after onalespib 80 mg/m^2, n = 15, geometric mean
Readout kind: Cmax (ng/mL)
Please state the figure in ng/mL; there is no need to write the unit.

GET /value?item= O=C(NC1CCNCC1)c1n[nH]cc1NC(=O)c1c(Cl)cccc1Cl [AT7519] &field=Cmax returns 459

----------
Test: Plasma pharmacokinetics in patients
Format: in vivo, human
Settings: human, plasma, iv, t1/2,z, DL3, C1D11, AT7519 27 mg/m^2 IV after onalespib 80 mg/m^2, n = 2, geometric mean
Readout kind: half-life (h)
Numeric answer only, unit h assumed.

Notebook: `O=C(NC1CCNCC1)c1n[nH]cc1NC(=O)c1c(Cl)cccc1Cl` , half-life read as 9.38
